# protocol.text: binders of probe aHhip on microarray, primary screen, stem cell growth factor project, biochemical, small-molecule microarray, fluorescence 635/667 (AID 1087);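 further: score merges spot fluorescence at 667nm with spot signal to noise ratio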
# condition.parameters: higher = more signal
Quick rule: composite z-score of at least -0.2 means True, below that means False.

Known results for compounds:
COCCCNC(=O)[C@@]1(c2ccc([N+](=O)[O-])cc2)CC(=O)N(C2CCCCC2)[C@@H]1c1ccc(CO)cc1I : True
CC(C)[Si](C#Cc1ccccc1)(O[C@H](c1ccccc1)c1cn(Cc2ccccc2)nn1)C(C)C : True
CCCNC(=O)[C@@]1(Sc2ccc(C)cc2)CC(=O)N(Cc2cc(C(F)(F)F)cc(C(F)(F)F)c2)[C@@H]1c1ccc(CO)cc1 : False
Cc1ccc(N2C(=O)c3ccccc3[C@@H](C(=O)NCCN3CCOCC3)[C@@H]2c2ccc(CO)cc2)nc1 : False

Now take the following compound into account.
Problem: Item COC(=O)C(CC#Cc1ccc2c(c1)[C@]1(C(=O)N2)[C@H](C(=O)N2CCCCCCC2)[C@H]2C(=O)O[C@H](c3ccccc3)[C@H](c3ccccc3)N2[C@@H]1c1ccc(OCCO)cc1)C(=O)OC with composite z-score of -0.2 or above?
Result: True

----------
# Test system: wheat germ agglutinin (Triticum aestivum), Alexa647-labelled
# protocol.text: wheat germ agglutinin binders on compound microarrays, profiling panel, artefact control for SMM control-protein annotation, biochemical, small-molecule microarray, 635/667 nm fluorescence (AID 1140);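 further: score merges 667 nm feature emission with signal to noise over triplicate slides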
# condition.parameters: WGA-A647 binding, 635 nm fluorescence, higher = more signal
A collection of compounds and their measured composite z-score
Would you mind answering with just the numeric figure?

Field: example entries. Status: answers known.
COC(=O)C(CC#Cc1ccc2c(c1)[C@]1(C(=O)N2)[C@H](C(N)=O)[C@H]2C(=O)O[C@H](c3ccccc3)[C@H](c3ccccc3)N2[C@@H]1c1ccccc1OCCO)C(=O)OC : 0.775
COCCOC(=O)N1C(=O)[C@@]2(c3cc(C#CCCO)ccc31)[C@H](C(=O)N1CCN(c3ncccn3)CC1)[C@H]1C(=O)O[C@H](c3ccccc3)[C@H](c3ccccc3)N1[C@@H]2c1ccc(OCCO)cc1 : 1.02

Could you now look at the following compound, please?
Problem: API: value(readout=composite z-score, system=wheat germ agglutinin (Triticum aestivum), Alexa647-labelled) for record CCCCC(=C=CC[C@H](O)c1ccccc1OCCO)CCO
Result: -0.298

----------
Listed molecules paired with reported composite z-score
# protocol.text: small-molecule binders of probe aInhba, primary screen, biochemical, small-molecule microarray, 635/667 nm fluorescence (AID 1148);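 further: score merges 667nm spot fluorescence with signal-to-noise for antibody binding to printed compounds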
# condition.parameters: higher = more signal
// return a plain number; no unit text

Use the examples below as a reference point.
CC(C)[Si](C#Cc1ccccc1)(O[C@H](c1ccccc1)c1cn(Cc2ccccc2)nn1)C(C)C : -0.222
COC(=O)[C@@]1(Cc2ccccc2)[C@H]2c3cc(C(=O)N(C)C)n(Cc4nc5ccccc5[nH]4)c3C[C@H]2CN1C(=O)c1ccccc1 : 0.337
CN(C)CCCCNC(=O)[C@H]1C[C@H]2C(=O)N[C@@H](CCCCN(C)C)C(=O)N2[C@H]1c1ccc(O)cc1 : -0.206
COCCOC(=O)N1C(=O)[C@@]2(c3cc(C#CCC(C(=O)OC)C(=O)OC)ccc31)[C@H](c1ccc(O)cc1)N1[C@H](c3ccccc3)[C@H](c3ccccc3)OC(=O)[C@H]1[C@@H]2C(=O)N1CCc2cc(OC)c(OC)cc2C1 : 0.0714
C=CC[C@H](OC(=O)Nc1ccc(SC)cc1)c1ccc(O)c(F)c1 : -0.285

Problem: Please report the recorded composite z-score for C=CCNC(=O)[C@H]1[C@@H]2C(=O)O[C@@H](c3ccccc3)[C@@H](c3ccccc3)N2[C@@H](c2ccc(OCCO)cc2)[C@]12C(=O)N(C(=O)OCCOC)c1ccc(C#CCNC(N)=O)cc12 .
Result: -0.0313

Problem: Please look up its composite z-score: O=C1C2C=CC(C(O)C(c3ccccc3)c3ccccc3)N(Nc3ccccc3F)C2C(=O)N1c1ccccc1 (stereo not drawn)
Result: 0.0183

Problem: What does the record list as composite z-score for O=C(NCC(F)(F)F)[C@@H]1c2ccccc2C(=O)N(Cc2cc(C(F)(F)F)cc(C(F)(F)F)c2)[C@H]1c1ccc(CO)cc1 ?
Result: 0.0074

----------
# subject.of.test: Focal adhesion kinase 1 (Homo sapiens)
# protocol.text: small-molecule microarray binders of FAK, primary screen, biochemical, 635/667 nm fluorescence, BSA, DTT (AID 1130);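 further: composite of spot emission at 667 nm and signal to noise over triplicate slides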
# condition.parameters: PTK2 binding, 635 nm fluorescence, higher = more signal
Criterion: composite z-score meeting or surpassing 0.3. Met: y. Not met: n.

COc1ccc([Si](C)(C)[C@H]2[C@H](CC(=O)N(CCO)Cc3ccccc3)O[C@@]3(C(=O)N(Cc4cccc(N5CCCCC5=O)c4)c4ccccc43)[C@@H]2C)cc1 : n
O=C1O[C@H](c2ccccc2)[C@H](c2ccccc2)N2[C@H]1[C@@H](C(=O)Nc1nc3ccccc3s1)[C@]1(C(=O)Nc3ccccc31)[C@H]2c1ccccc1OCCO : y
C=C(C(=O)CC[C@@H](OC(=O)c1ccccc1-c1ccccc1C(=O)O)c1cccc(OCCO)c1)C(C)C : n
CCOC(=O)C1=CCC(c2ccncc2)N(S(=O)(=O)c2ccc(C)cc2)C1 (stereo not given) : y
O=C1OCCC/C=C\[C@H]2OC34C=CCN(Cc5ccccc5)C(=O)[C@H]3N(CCO)C(=O)[C@@H]4C12 (stereo not given in full) : n

In the following, a different compound is considered.
Problem: # check: composite z-score of CCCN1C(=O)[C@@]2(c3ccc([N+](=O)[O-])cc3)CC(=O)N(C3CCCCC3)[C@@H]2c2ccc(CO)cc21 is greater than or equal to 0.3
Result: y

----------
# Test system: Noggin (protein binding on small-molecule microarray)
# protocol.text: Noggin binders on small-molecule microarray, primary screen, biochemical, 635/667 nm fluorescence (AID 1095);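 further: score merges 667 nm feature fluorescence with signal to noise over triplicate slides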
# condition.parameters: 635 nm fluorescence, higher = more signal
composite z-score listing for selected compounds.
// no unit string in output, number only

Worked examples, 2 compounds total:
C=CCNC(=O)[C@H]1[C@@H]2C(=O)O[C@@H](c3ccccc3)[C@@H](c3ccccc3)N2[C@@H](c2ccc(OCCO)cc2)[C@]12C(=O)N(C(=O)OCCOC)c1ccc(C#CCNC(N)=O)cc12 : 1.84
O=C1C[C@@](C(=O)NCC(F)(F)F)(c2ccc([N+](=O)[O-])cc2)[C@@H](c2ccc(CO)cc2I)N1CC12CC3CC(CC(C3)C1)C2 : 0.515

Now look at this entry.
Problem: So what composite z-score did O=C1c2ccccc2[C@@]2(Cc3ccccc3N(CC(F)(F)F)C2=O)[C@H](c2ccc(CO)cc2)N1Cc1ccccc1 get with Noggin (protein binding on small-molecule microarray)?
Result: 0.666

----------
# protocol.text: modulators of S6 phosphorylation in cells, primary screen, cell-based, A549, cytoblot, luminescence, serum-stimulated (AID 1158);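 further: serum-stimulated A549 lung adenocarcinoma cells; signal is phosphorylated S6 detected by cytoblot immunostaining with HRP secondary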
# condition.parameters: A549 phospho-S6 cytoblot, 5 h, higher = more signal
Recorded measurements of z-score, one per entry
// return a plain number; no unit text

C=C(CCCC)C(=O)CC[C@@H](OC(C)=O)c1ccc(OCCO)cc1 : -0.222
COc1ccc(C(=O)Nc2ccc(CN3C(=O)[C@@]4(O[C@@H](CC(=O)N(CCO)Cc5ccccc5)[C@H]([Si](C)(C)c5ccc(OC)cc5)[C@H]4C)c4ccccc43)cc2)cc1 : 1.21

Please turn your attention to the following entry.
Problem: Fill in: z-score of COC(=O)C1(CC(C)C)C=C2C(=C(C)C(=O)C2C)CN1 (stereo not drawn) is ___
Result: -0.164

----------
# protocol.text: basal RPMI8226 viability, no added stimulus, profiling panel, cell-based, calcein-AM fluorescence, 48 h, PK04 Diversity Set (AID 1166);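 further: cells grown under basal conditions without added stimulus; test concentration not given here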
# condition.parameters: RPMI8226 myeloma viability, higher = more signal
experimental.endpoint: z-score
Please state the value as a number alone, without comment.

Some solved entries appear below for comparison.
O=C(NCC(F)(F)F)[C@@H]1c2ccccc2C(=O)N(Cc2cc(C(F)(F)F)cc(C(F)(F)F)c2)[C@H]1c1ccc(CO)cc1 : 1.07
COc1ccc(NN2C(C(O)c3ccc(F)cc3)C=CC3C(=O)N(C4CCCCC4)C(=O)C32)cc1 (stereo not drawn) : -1.08
C=CCNC(=O)[C@H]1[C@@H]2C(=O)O[C@@H](c3ccccc3)[C@@H](c3ccccc3)N2[C@@H](c2ccc(OCCO)cc2)[C@]12C(=O)N(C(=O)OCCOC)c1ccc(C#CCC(C(=O)OC)C(=O)OC)cc12 : -0.749

Problem: Bench note: what z-score did CCOC(=O)C1=CC[C@@H](c2ccccc2)N(S(=O)(=O)c2ccc(C)cc2)[C@@H]1C#N show?
Result: -2.77

Problem: For the compound shown here, O=C(NCCN1CCOCC1)[C@@H]1c2ccccc2C(=O)N(CC23CC4CC(CC(C4)C2)C3)[C@H]1c1ccc(CO)cc1 , give the reported z-score.
Result: -0.327

Problem: # query: z-score of entry Cc1ccc(S[C@]2(C(=O)NC(C)C)CC(=O)N(Cc3ccccc3)[C@@H]2c2ccc(CO)cc2)cc1
Result: 1.23

Problem: Look up z-score: COc1cc(Cc2cc3c(c(-c4ccccc4)n2)[Si](C(C)C)(C(C)C)OC3)cc(OC)c1OC
Result: -0.189

src = PubChem BioAssay
